Origin of measurements: paper PMC11653107

# test details: Pharmacokinetics of sulfatinib in rats, DDI study with myricetin (UPLC-MS/MS of plasma)
# Format: in vivo, Sprague-Dawley (SD) rats
# experimental parameters: male, Sprague-Dawley, rat, in vivo, po, 30 mg/kg, CLz/F
measured endpoint: CL/F (mL/min/kg)

molecule=Cc1cc2cc(Oc3ccnc(Nc4cccc(CS(=O)(=O)NCCN(C)C)c4)n3)ccc2[nH]1 meas_value=55

###

# test details: Pharmacokinetics of sulfatinib in rats, DDI study with myricetin (UPLC-MS/MS of plasma)
# Type: in vivo, Sprague-Dawley (SD) rats
# experimental parameters: male, Sprague-Dawley, rat, in vivo, po, 30 mg/kg, AUC0→t
# Experimental: In the present assay, a Waters Xevo TQS triple quadrupole tandem mass spectrometer (Milford, MA, United States), connected to a Waters Acquity UPLC I class system (Milford, MA, United States) was applied in the method. The parameters of mass spectrometry were determined as follows before analysis: capillary voltage 2.0 kV, desolvation gas 1000 L/h, collision gas 0.15 mL/min, desolvation temperature 600°C and conical gas 150 L/h. […]
measured endpoint: AUC(0-t) (ng·h/mL)

compound="Cc1cc2cc(Oc3ccnc(Nc4cccc(CS(=O)(=O)NCCN(C)C)c4)n3)ccc2[nH]1 [Sulfatinib]" measured_endpoint=AUC(0-t) unit=ng·h/mL meas_value=9250
